# assay notes: Inhibitory activity against alpha-L-fucosidase in bovine kidney at PH of 6.5; Mixed Inhibition type
# condition set: pH 6.5
experimental endpoint: Ki (µM)
Output spec: scalar in µM, unitless text.

Would you mind telling me what Ki value was observed for CC(=O)NCSC1OC(C)C(O)C(O)C1O (stereo unspecified) ?
4.6
